pIC50: −log10 of the molar value.
Literature roundup of Beta-galactosidase (Bos taurus) data, read-out pIC50.
VALUE_TYPE: pIC50

> print(dat)
                                   compound  measurement.qualifier  value.measured
1  CC(O)[C@@H](O)[C@H]1N[C@H](CO)[C@@H](O)[C@@H]1O (stereo partly drawn)                      =            3.89
2               CO[C@@H]1CN(C)C[C@@H](CO)O1                      =            4.05
3  CCCCOC1OCC(CNC(=N)N2C[C@@H](O)[C@H](O)[C@@H](O)C2)O1 (stereo partly drawn)                      <            4.52

----------
pIC50: −log10 of the molar value.
Literature roundup of UniProt:Q58D55 data, read-out pIC50.
VALUE_TYPE: pIC50

> print(dat)
                                   molecule  value.type  value.measured
1  CCCCCCCCOC1OCC(CNC(=N)N2C[C@@H](O)[C@H](O)[C@@H](O)C2)O1 (some centres undefined)       pIC50          < 4.52
2  N=C(NCCO)N1C[C@H](O)[C@@H](O)[C@H](O)[C@H]1CO       pIC50          < 3.00
3  CCCCCCCCCCn1cc(CN[C@H]2[C@H](O)[C@@H](O)[C@H](O)[C@@H](O)[C@@H]2O)nn1       pIC50          < 4.00
4  N=C(NCCOCCO)N1C[C@H](O)[C@@H](O)[C@H](O)[C@H]1CO       pIC50          < 3.00
